testTarget: Human CD137 ECD (human)
Sequence (chain, as listed by the source limits assumed): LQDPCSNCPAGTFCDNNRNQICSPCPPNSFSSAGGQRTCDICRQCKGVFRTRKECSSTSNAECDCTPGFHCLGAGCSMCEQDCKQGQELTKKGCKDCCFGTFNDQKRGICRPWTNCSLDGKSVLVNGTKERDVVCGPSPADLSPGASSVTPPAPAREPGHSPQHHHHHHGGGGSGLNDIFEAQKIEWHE
experimentDescription: Biacore SPR, vs parent H183/L072
observationType: fold change of affinity

fold change of affinity for H183/L072 VL L33K (antibody, name in Kabat numbering, V domains shown) VH: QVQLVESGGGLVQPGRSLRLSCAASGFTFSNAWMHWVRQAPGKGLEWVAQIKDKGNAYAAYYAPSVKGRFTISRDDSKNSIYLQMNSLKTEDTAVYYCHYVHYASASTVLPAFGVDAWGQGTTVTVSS VL: DIVMTQSPLSLPVTPGEPASISCQASQELVHMNRNTYKHWYQQKPGQAPRLLIYKVSNRFPGVPDRFSGSGSGTDFTLKISRVEAEDVGVYYCAQGTSVPFTFGQGTKLEIK is 0 fold

fold change of affinity for H183/L072 VL N28D (antibody, name in Kabat numbering, V domains shown) VH: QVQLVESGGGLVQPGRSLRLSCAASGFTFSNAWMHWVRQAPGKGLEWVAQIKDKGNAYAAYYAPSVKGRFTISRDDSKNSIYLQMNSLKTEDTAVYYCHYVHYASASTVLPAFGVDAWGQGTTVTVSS VL: DIVMTQSPLSLPVTPGEPASISCQASQELVHMDRNTYLHWYQQKPGQAPRLLIYKVSNRFPGVPDRFSGSGSGTDFTLKISRVEAEDVGVYYCAQGTSVPFTFGQGTKLEIK is 0 fold

Cited source for all entries: patent US20210388087A1
